Reported IC50 by item:
- studySystem: Recombinant human TDO comprising amino acids 19-407 (Homo sapiens)
- Construct: Recombinant human TDO comprising amino acids 19-407 with a N-terminal hexahistidine tag; hexahistidine (His6) (N); made in house; host or cells: E. coli
- Sequence (P48775 19-406 limits assumed): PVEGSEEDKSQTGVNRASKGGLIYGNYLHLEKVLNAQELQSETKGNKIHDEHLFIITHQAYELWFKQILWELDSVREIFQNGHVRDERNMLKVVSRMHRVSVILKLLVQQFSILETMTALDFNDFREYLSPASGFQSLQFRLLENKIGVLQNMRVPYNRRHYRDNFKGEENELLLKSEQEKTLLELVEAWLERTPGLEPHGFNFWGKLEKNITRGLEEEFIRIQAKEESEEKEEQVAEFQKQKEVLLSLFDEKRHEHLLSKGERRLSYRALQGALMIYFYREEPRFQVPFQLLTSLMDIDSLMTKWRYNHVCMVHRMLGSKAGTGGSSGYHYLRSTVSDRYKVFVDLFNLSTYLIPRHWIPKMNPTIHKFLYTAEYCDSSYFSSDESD
- protocolNotes: TDO2 enzymatic assay (NFK quantified by LCMS)
- Format: biochemical
- setupConditions: 15 nM enzyme, 200 μM L-tryptophan, pH7, 30 minutes pre-incubation at RT; mean values when measured multiple times; read-out: hTDO activity (IC50 in nM)
- Procedure: 2) Testing Compounds for TDO Inhibitory Activity in a TDO2 Enzymatic Assay: Recombinant human TDO comprising amino acids 19-407 with a N-terminal hexahistidine tag expressed in E. coli and purified to homogeneity is incubated at a final concentration of 15 nM in assay buffer consisting of 75 mM phosphate buffer at pH7 supplemented with 100 μM ascorbic acid, 50U/ml Catalase, 0.01% BSA, and 0.01% Tween 20 (protocol modified from Seegers et al, JBS 2014). […]

// worked examples, IC50 included
compound | IC50
CCNC(=O)Nc1ccc(-n2cc(C(O)c3c(CC)sc4cncn34)nn2)cc1OC (racemic) | 7720 nM
CCc1sc2cncn2c1C(O)c1cn(-c2ccc(C(=O)NCCC#N)cc2)nn1 (racemic) | > 10200 nM
CCOc1ccc(-n2nnc(C(O)c3c(C4CC4)sc4cncn34)c2C)cc1Cl (racemic) | > 10200 nM

### Prompt Item under review: N#Cc1ccccc1-c1ccc(C(O)c2c(C3CC3)sc3cncn23)s1 (racemic) . Reported IC50?
### Response 4080 nM

---

- studySystem: Recombinant full-length human IDO1 (Homo sapiens)
- Construct: Recombinant full-length human IDO1 with a N-terminal hexahistidine tag; hexahistidine (His6) (N); made in house; host or cells: E. coli
- Sequence (P14902 whole entry): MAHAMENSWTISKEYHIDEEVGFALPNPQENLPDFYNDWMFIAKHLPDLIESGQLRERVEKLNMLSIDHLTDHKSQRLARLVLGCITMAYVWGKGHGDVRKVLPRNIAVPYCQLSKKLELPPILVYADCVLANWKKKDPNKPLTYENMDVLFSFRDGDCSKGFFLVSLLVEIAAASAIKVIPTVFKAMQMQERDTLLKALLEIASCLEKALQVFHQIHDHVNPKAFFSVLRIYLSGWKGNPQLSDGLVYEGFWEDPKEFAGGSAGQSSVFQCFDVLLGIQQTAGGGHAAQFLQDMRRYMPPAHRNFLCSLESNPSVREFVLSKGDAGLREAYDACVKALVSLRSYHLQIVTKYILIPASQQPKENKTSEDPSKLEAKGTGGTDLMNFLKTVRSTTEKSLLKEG
- protocolNotes: IDO1 enzymatic assay (NFK quantified by LCMS)
- Type: biochemical
- setupConditions: 2 nM enzyme, 5 μM L-tryptophan, pH6.5, 30 minutes pre-incubation at RT; mean values when measured multiple times; read-out: hIDO activity (IC50 in nM)
endpoint: IC50
Give your result as the value with the unit written after it.

molecule | IC50
CC(C)Oc1ncc(-n2cc(C(O)c3c(C4CC4)sc4cncn34)nn2)cc1Cl (racemic) [Example 73] | 36.1 nM
CCc1sc2cncn2c1C(O)c1cn(-c2ccc(C(=O)N3CCOCC3)cc2)nn1 (racemic) [Example 117] | 93.3 nM
OCCOCCOCCOc1ccc(-n2cc(C(O)c3c(C4CC4)sc4cncn34)nn2)cc1 (racemic) [Example 201] | 27.8 nM
Cn1ccc2cc(-n3cc(C(O)c4c(C5CC5)sc5cncn45)cn3)cnc21 (racemic) [Example 229] | 43.7 nM
Oc1ccc(-n2cc(C(O)c3c(C4CC4)sc4cncn34)nn2)c(Cl)c1 (racemic) [Example 212] | 10.5 nM
CCc1sc2cncn2c1C(O)c1cn(-c2ccc(NC(N)=O)cc2)nn1 (racemic) [Example 131] | 22.3 nM

### Prompt Item under review: COc1ccc(-n2nnc(C(O)c3c(C4CC4)sc4cncn34)c2C)cc1Cl (racemic) [Example 295] . Reported IC50?
### Response 6.63 nM

### Prompt Another molecule: CC(C)(C)OC(=O)Nc1ccc(-n2cc(C(O)c3c(C4CC4)sc4cncn34)nn2)cc1 (racemic) [Example 180]
### Response 33.6 nM

### Prompt Another molecule: N#Cc1ccc(-c2ccc(C(O)c3c(C4CC4)sc4cncn34)s2)cc1 (racemic) [Example 173]
### Response 732 nM

### Prompt Another molecule: CCc1sc2cncn2c1C(O)c1cn(-c2ccc(OCC3(F)COC3)c(Cl)c2)nn1 (racemic) [Example 317]
### Response 7.18 nM

### Prompt Another molecule: OC(c1cn(-c2cnc3c(c2)CCCO3)nn1)c1c(C2CC2)sc2cncn12 (racemic) [Example 72]
### Response 35.5 nM

### Prompt Another molecule: CCOC(=O)COc1ccc(-n2cc(C(O)c3c(C4CC4)sc4cncn34)nn2)cc1 (racemic) [Example 231]
### Response 22.3 nM

### Prompt Another molecule: COc1cccc(-c2ccc(C(O)c3c(C4CC4)sc4cncn34)s2)c1 (racemic) [Example 167]
### Response 639 nM

### Prompt Another molecule: CC(C)Oc1ccc(-n2cc(C(O)c3c(C4CC4)sc4cncn34)nn2)cc1 (racemic) [Example 33]
### Response 20 nM

### Prompt Another molecule: CCc1sc2cncn2c1C(O)c1cn(-c2ccc(N3CCOCC3)cc2)nn1 (racemic) [Example 47]
### Response 44.4 nM

### Prompt Another molecule: O[C@@H](c1cn(-c2ccc(OCC3CCOCC3)cc2)nn1)c1c(C2CC2)sc2cncn12 [Example 87a]
### Response 4.55 nM

### Prompt Another molecule: Oc1c(F)cc(-n2cc(C(O)c3c(C4CC4)sc4cncn34)nn2)cc1F (racemic) [Example 149]
### Response 3.8 nM

### Prompt Another molecule: COCc1ccc(-n2cc(C(O)c3c(C4CC4)sc4cncn34)nn2)cc1 (racemic) [Example 330]
### Response 31.6 nM

### Prompt Another molecule: CCc1sc2cncn2c1C(O)c1cn(-c2ccc(OCCC(C)(C)O)c(Cl)c2)nn1 (racemic) [Example 302]
### Response 6.88 nM

### Prompt Another molecule: OC(c1cn(-c2ccccc2)cn1)c1c(C2CC2)sc2cncn12 (racemic) [Example 178]
### Response 515 nM

### Prompt Another molecule: Oc1ccccc1Cn1cc(C(O)c2c(C3CC3)sc3cncn23)nn1 (racemic) [Example 305]
### Response 71.3 nM
